target or test system: recombinant human TDP2 (Homo sapiens, UniProt O95551)
Sequence (O95551 whole entry): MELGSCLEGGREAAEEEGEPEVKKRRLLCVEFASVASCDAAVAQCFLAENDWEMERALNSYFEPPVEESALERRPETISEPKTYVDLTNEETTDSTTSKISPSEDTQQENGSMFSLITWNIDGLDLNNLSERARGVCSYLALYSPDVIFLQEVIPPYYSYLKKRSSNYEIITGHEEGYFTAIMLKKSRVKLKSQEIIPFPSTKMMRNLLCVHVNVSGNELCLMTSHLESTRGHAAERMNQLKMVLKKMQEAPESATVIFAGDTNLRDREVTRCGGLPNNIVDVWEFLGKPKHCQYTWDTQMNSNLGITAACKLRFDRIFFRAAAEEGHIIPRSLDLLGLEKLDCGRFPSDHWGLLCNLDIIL
run description: Recombinant Tdp2 assay (gel-based, 18-mer ssDNA substrate)
experimental conditions: recombinant human TDP2, 25 pM, 15 min, room temperature; read-out: REC TDP2
pIC50: −log10 of the molar value.
What pIC50 was measured for each of the following?

[
  {
    "compound": "Cc1oc2c(c1C(=O)OC[C@H]1COC(C)(C)O1)C(=O)c1ncccc1C2=O [Compound 38]",
    "pIC50": "4.92 to 6.00"
  },
  {
    "compound": "CC(=O)c1c(C)oc2c1C(=O)c1ncccc1C2=O [Compound 9]",
    "pIC50": "3.95 to 4.43"
  },
  {
    "compound": "Cc1oc2c(c1C(=O)Oc1ccccc1O)C(=O)c1ncccc1C2=O [Compound 13]",
    "pIC50": "4.43 to 4.92"
  }
]

For every item in the list below, what is its measured pIC50?
1. C#CCCOC(=O)c1c(C)oc2c1C(=O)c1ncccc1C2=O [Compound 43]
2. Cc1oc2c(c1C(=O)Oc1ccc(Cl)cc1)C(=O)c1ncccc1C2=O [Compound 27]
3. Cc1oc2c(c1C(=O)Nc1cccc(Cl)c1)C(=O)c1ncccc1C2=O [Compound 17]
4. CCOC(=O)c1c(CC)oc2c1C(=O)c1ncccc1C2=O [Compound 66]

result:
4.43 to 4.92
4.92 to 6.00
< 3.95
4.43 to 4.92

query: Report pIC50 from recombinant human TDP2 (Homo sapiens, UniProt O95551) testing of COC(=O)c1sccc1OC(=O)c1c(C)oc2c1C(=O)c1ncccc1C2=O [Compound 62]
result: 4.43 to 4.92
